These measurements were taken from ChEMBL document CHEMBL5303304.

# Tested on: U2OS
# protocol.details: Incucyte cell viability with U2OS; note: unitless GR value; below 1 slowed growth and below 0 cell loss
# Format: toxicity, cell-based
# details: human, 18 h, 10 µM, compound concentration 10 uM, replicate number 1
Examples of compounds with documented Growth Rate follow.
Enter the number alone.

I have this compound here, COc1ccc(OC)c(-c2ccc(NC(=O)c3ccncc3F)cc2)c1 , and I need its recorded Growth Rate.
0.74

Given the entry FC(F)(F)Oc1ccc(-c2ccc3nnc(C(F)(F)F)n3c2)cc1 , report its measured Growth Rate.
0.74

For CN(C)C(=O)c1cc2cnc(Nc3ccc(N4CCN(CCCCNC(=O)COc5cccc6c5C(=O)N(C5CCC(=O)NC5=O)C6=O)CC4)cn3)nc2n1C1CCCC1 (stereo not drawn) , what is its reported Growth Rate?
0.93

So what does the record say about Growth Rate for CN[C@@H](C)C(=O)N[C@H](C(=O)N1CCC[C@H]1C(=O)N[C@H]1c2ccccc2C[C@H]1OCC#CC#CCO[C@@H]1Cc2ccccc2[C@@H]1NC(=O)[C@@H]1CCCN1C(=O)[C@@H](NC(=O)[C@H](C)NC)C1CCCCC1)C1CCCCC1 ?
0.87

What value of measured Growth Rate is listed for Oc1cc2c(cc1O)CN(C(=S)NCCc1ccc(Cl)cc1)CCC2 [CAPSAZEPINE] ?
0.88

# input compound: CN(C)C/C=C/C(=O)Nc1cccc(S(=O)(=O)N2CCC(NC(=O)c3n[nH]cc3NC(=O)c3c(Cl)cc(Cl)cc3Cl)CC2)c1 ; wanted: its Growth Rate
-0.42

Sample Oc1cccc(Nc2ccnc3[nH]c4ccccc4c23)c1 — what was its Growth Rate?
0.69

Could you tell me which Growth Rate is on file for NCC1CCC(CNc2nc(NCc3ccccc3OC(F)(F)F)ncc2[N+](=O)[O-])CC1 (stereo not drawn) ?
0.69
